Source: patent US10770169B2

Please provide measured GI50 for the entries that follow.
# Test system: panel of 55 breast cancer cell lines
# protocolDescription: Cell growth inhibition assay (Cell Titer Glo, 72 h, 9 doses; GI50, TGI, LC50)
# Assay type: cell-based, human
# testConditions: cell line SUM52PE; value is the negative log10 of mol/L
Answers are plain numbers.

compound	GI50
COc1cc2ncnc(Nc3cccc(Cl)c3)c2cc1OC	3.78
O=c1[nH]c2ccccc2n1C1CCN(Cc2ccc(-c3nc4cc5[nH]cnc5cc4nc3-c3ccccc3)cc2)CC1	5.81

Please state GI50 for every compound in the list that follows.
1. C=CCNC1=C2C[C@@H](C)C[C@H](OC)[C@H](O)[C@@H](C)/C=C(\C)[C@H](OC(N)=O)[C@@H](OC)/C=C\C=C(/C)C(=O)NC(=CC1=O)C2=O
2. CC(=O)Nc1cccc(-n2c(=O)n(C3CC3)c(=O)c3c(Nc4ccc(I)cc4F)n(C)c(=O)c(C)c32)c1.C[S+](C)[O-] [GSK1120212B]
3. COc1cc2c(Nc3ccc(NC(=O)c4ccccc4)cc3)ncnc2cc1OCCCN1CCOCC1

OUTPUT:
7.46
5.06
5.40

Could you tell me GI50 for each of these compounds? They are listed below.
1. Oc1cc(-c2nc(-c3ccccc3)[nH]c2-c2ccncc2)ccc1Cl
2. Cc1cc(Nc2cc(N3CCN(C)CC3)nc(Sc3ccc(NC(=O)C4CC4)cc3)n2)n[nH]1

OUTPUT:
1. 5.13
2. 6.41

###

# Tested on: panel of 55 breast cancer cell lines
# protocolDescription: Cell growth inhibition assay (Cell Titer Glo, 72 h, 9 doses; GI50, TGI, LC50)
# Type: cell-based, human
# testConditions: UACC812 cell line; censored GI50 values; value is the negative log10 of mol/L
Binarize GI50 at 5; below is class 1, at or above is class 0.

A selection of reference data follows.
compound	assignedClass
N.N.O=C([O-])C1(C(=O)[O-])CCC1.[Pt+2]	class 1
O=c1[nH]c(=O)n([C@H]2C[C@H](O)[C@@H](CO)O2)cc1F	class 1
N#Cc1c(NC(=O)c2cccc3ccccc23)sc2c1CCCC2	class 0

INPUT: Is GI50 strictly under 5 for the entry O=S(=O)(CC1CS1)c1ccc(Oc2ccccc2)cc1 (stereo not drawn) ?
OUTPUT: class 1

INPUT: Another compound to check: Cc1cc(C(=O)N2CCN(c3cccc(Cl)c3)CC2)n(-c2ccccc2)n1 [XRP44X]
OUTPUT: class 0

INPUT: For `O=c1[nH]c2ccccc2n1C1CCN(Cc2ccc(-c3nc4cc5[nH]cnc5cc4nc3-c3ccccc3)cc2)CC1` then?
OUTPUT: class 0

###

# Tested on: panel of 55 breast cancer cell lines
# protocolDescription: Cell growth inhibition assay (Cell Titer Glo, 72 h, 9 doses; GI50, TGI, LC50)
# Assay type: cell-based, human
# testConditions: Homo sapiens, cell line MDAMB175V; read-out: GI50 (converted)
parameter: GI50 (µM)
Answers are plain numbers, in µM.

molecule	systemName	unitText	resultNumber
NS(=O)(=O)OC[C@@H]1C[C@@H](n2ccc3c(N[C@H]4CCc5ccccc54)ncnc32)C[C@@H]1O	panel of 55 breast cancer cell lines	µM	0.427
Cc1cncc2cccc(S(=O)(=O)N3CCCN(C(=O)CN)C[C@@H]3C)c12	panel of 55 breast cancer cell lines	µM	33.1

Here is the next item to consider.
INPUT: Give its GI50 value. Item: `O=C1c2ccccc2-[n+]2ccc3c([nH]c4ccccc43)c21`
OUTPUT: 0.191

###

# Tested on: panel of 55 breast cancer cell lines
# protocolDescription: Cell growth inhibition assay (Cell Titer Glo, 72 h, 9 doses; GI50, TGI, LC50)
# Assay type: cell-based, human
# testConditions: Homo sapiens, MDA-MB-468, cell line MDAMB468; read-out: GI50 (converted)
parameter: log10(GI50) (log10 of the value in µM)
Note the log scale: values are log10 of GI50 expressed in µM.

compound	systemName	resultNumber
CN(Cc1cnc2nc(N)nc(N)c2n1)c1ccc(C(=O)N[C@@H](CCC(=O)O)C(=O)O)cc1 [Methotrexate]	panel of 55 breast cancer cell lines	-1.49
CS(=O)(=O)CCNCc1ccc(-c2ccc3ncnc(Nc4ccc(OCc5cccc(F)c5)c(Cl)c4)c3c2)o1	panel of 55 breast cancer cell lines	1.22
COc1cc2ncnc(Nc3ccc(F)c(Cl)c3)c2cc1OCCCN1CCOCC1	panel of 55 breast cancer cell lines	1.40
COC1=C2C[C@@H](C)C[C@H](OC)[C@H](O)[C@@H](C)/C=C(\C)[C@H](OC(N)=O)[C@@H](OC)/C=C\C=C(/C)C(=O)NC(=CC1=O)C2=O	panel of 55 breast cancer cell lines	-1.56
CCNCCCNC/C=C\CNCCCNCC	panel of 55 breast cancer cell lines	-0.05
Nc1nc2[nH]cc(CCc3ccc(C(=O)N[C@@H](CCC(=O)O)C(=O)O)cc3)c2c(=O)[nH]1	panel of 55 breast cancer cell lines	3.17
CC(=O)O[C@H]1C(=O)[C@@]2(C)[C@H]([C@H](OC(=O)c3ccccc3)[C@]3(O)C[C@H](OC(=O)[C@H](O)[C@@H](NC(=O)c4ccccc4)c4ccccc4)C(C)=C1C3(C)C)[C@]1(OC(C)=O)CO[C@@H]1C[C@@H]2O	panel of 55 breast cancer cell lines	-2.06

Now look at this entry.
INPUT: Consider the compound `O=C1c2ccccc2-[n+]2ccc3c([nH]c4ccccc43)c21` and give its measured log10(GI50).
OUTPUT: -1.11

###

# Test system: panel of 55 breast cancer cell lines
# protocolDescription: Cell growth inhibition assay (Cell Titer Glo, 72 h, 9 doses; GI50, TGI, LC50)
# Format: cell-based, human
# testConditions: cell line HCC1954; value is the negative log10 of mol/L
Exercise: for every item that follows, state its recorded GI50.
Numbers only.

Check out these entries, answers already filled in.
molecule	GI50
O=c1[nH]c2ccccc2n1C1CCN(Cc2ccc(-c3nc4cc5[nH]cnc5cc4nc3-c3ccccc3)cc2)CC1	5.08
C=CCNC1=C2C[C@@H](C)C[C@H](OC)[C@H](O)[C@@H](C)/C=C(\C)[C@H](OC(N)=O)[C@@H](OC)/C=C\C=C(/C)C(=O)NC(=CC1=O)C2=O	7.49
CC(C)(C)c1cc(C=C(C#N)C#N)cc(Br)c1O	4.50
COc1cccc(-c2cc(=O)c3ccccc3o2)c1N	4.30

// for each molecule in input: emit GI50
1. CC(/C=C/C(=O)NO)=C\[C@@H](C)C(=O)c1ccc(N(C)C)cc1
2. NC(=O)Nc1sc(-c2ccc(F)cc2)cc1C(N)=O
3. NS(=O)(=O)c1ccc(Nc2nc(OCC3CCCCC3)c3[nH]cnc3n2)cc1
4. O=C1C(Cl)=C(NCCN2CCOCC2)C(=O)c2ncccc21
5. N.N.O=C([O-])C1(C(=O)[O-])CCC1.[Pt+2]

OUTPUT:
4.95
4.77
4.34
5.22
4.37

###

# Tested on: panel of 55 breast cancer cell lines
# protocolDescription: Cell growth inhibition assay (Cell Titer Glo, 72 h, 9 doses; GI50, TGI, LC50)
# Type: cell-based, human
# testConditions: cell line HCC1806; value is the negative log10 of mol/L
Can you tell me GI50 for the items I'm about to list?
Answers are plain numbers.

Record excerpt, results attached:
molecule	systemName	parameter	resultNumber
CC(C)Oc1ccc(C(=O)N[C@H](CNC(=O)CN(C)C)Cc2ccc(-c3cn4cccc([C@H](C)O)c4n3)cc2)cc1Cl	panel of 55 breast cancer cell lines	GI50	7.34
CC(C)[C@H](CO)Nc1nc(Nc2cccc(Cl)c2)c2ncn(C(C)C)c2n1	panel of 55 breast cancer cell lines	GI50	4.00
C=CCNC1=C2C[C@@H](C)C[C@H](OC)[C@H](O)[C@@H](C)/C=C(\C)[C@H](OC(N)=O)[C@@H](OC)/C=C\C=C(/C)C(=O)NC(=CC1=O)C2=O	panel of 55 breast cancer cell lines	GI50	7.04

Field: next molecule
INPUT: Data request, read-out GI50, for `CCn1cc(-c2ccnc3[nH]c(-c4cccc(CN(C)C)c4)cc23)c(-c2ccc(NC(=O)N(C)C)cc2)n1`
OUTPUT: 5.16

###

# Tested on: panel of 55 breast cancer cell lines
# protocolDescription: Cell growth inhibition assay (Cell Titer Glo, 72 h, 9 doses; GI50, TGI, LC50)
# Assay type: cell-based, human
# testConditions: Homo sapiens, HCC38, HCC38 cell line; censored GI50 values; read-out: GI50 (converted)
Field: log10 of GI50. Provide a value for each of the compounds that follow.
Heads up: the numbers are on a log10 scale; they represent GI50 in nM.

compound	systemName	log10 of GI50
CNC(=O)c1cc(Oc2ccc(NC(=O)Nc3ccc(Cl)c(C(F)(F)F)c3)cc2)ccn1 [Sorafenib]	panel of 55 breast cancer cell lines	4.94

Field: log10 of GI50. Fill in for each record below.
1. CC(=O)O[C@@]12CO[C@@H]1C[C@H](O)[C@@]1(C)C(=O)[C@H](O)C3=C(C)[C@@H](OC(=O)[C@H](O)[C@@H](NC(=O)OC(C)(C)C)c4ccccc4)C[C@@](O)([C@@H](OC(=O)c4ccccc4)[C@H]21)C3(C)C [Docetaxel]
2. CC[C@@]1(O)C(=O)OCc2c1cc1n(c2=O)Cc2cc3c(CN(C)C)c(O)ccc3nc2-1 [Topotecan]

OUTPUT:
1. 0.31
2. 0.57
